Each recorded value in this set is attributed to ChEMBL document CHEMBL1938312.

Target: Serine/threonine-protein kinase Nek2 (Homo sapiens)
Test: Inhibition of NEK2 at 10 uM by colorimetric analysis
Calls of active or inactive are those of the source. No cut-off for these calls is given here.
METRIC: inhibition

[[record]]
compound_smiles = "Clc1ccc(-n2nncc2-c2ccncc2)cc1"
measured_target = "Serine/threonine-protein kinase Nek2 (Homo sapiens)"
result = "Active"

[[record]]
compound_smiles = "Clc1ccc(-n2cc(-c3ccncc3)nn2)cc1"
measured_target = "Serine/threonine-protein kinase Nek2 (Homo sapiens)"
result = "Active"

[[record]]
compound_smiles = "Clc1cccc(-n2nncc2-c2ccncc2)c1"
measured_target = "Serine/threonine-protein kinase Nek2 (Homo sapiens)"
result = "Active"

[[record]]
compound_smiles = "Clc1cccc(-n2cc(-c3ccncc3)nn2)c1"
measured_target = "Serine/threonine-protein kinase Nek2 (Homo sapiens)"
result = "Active"


----------
Molecular target: Tyrosine-protein kinase JAK3 (Homo sapiens) (UniProt P52333)
Sequence (P52333 whole entry): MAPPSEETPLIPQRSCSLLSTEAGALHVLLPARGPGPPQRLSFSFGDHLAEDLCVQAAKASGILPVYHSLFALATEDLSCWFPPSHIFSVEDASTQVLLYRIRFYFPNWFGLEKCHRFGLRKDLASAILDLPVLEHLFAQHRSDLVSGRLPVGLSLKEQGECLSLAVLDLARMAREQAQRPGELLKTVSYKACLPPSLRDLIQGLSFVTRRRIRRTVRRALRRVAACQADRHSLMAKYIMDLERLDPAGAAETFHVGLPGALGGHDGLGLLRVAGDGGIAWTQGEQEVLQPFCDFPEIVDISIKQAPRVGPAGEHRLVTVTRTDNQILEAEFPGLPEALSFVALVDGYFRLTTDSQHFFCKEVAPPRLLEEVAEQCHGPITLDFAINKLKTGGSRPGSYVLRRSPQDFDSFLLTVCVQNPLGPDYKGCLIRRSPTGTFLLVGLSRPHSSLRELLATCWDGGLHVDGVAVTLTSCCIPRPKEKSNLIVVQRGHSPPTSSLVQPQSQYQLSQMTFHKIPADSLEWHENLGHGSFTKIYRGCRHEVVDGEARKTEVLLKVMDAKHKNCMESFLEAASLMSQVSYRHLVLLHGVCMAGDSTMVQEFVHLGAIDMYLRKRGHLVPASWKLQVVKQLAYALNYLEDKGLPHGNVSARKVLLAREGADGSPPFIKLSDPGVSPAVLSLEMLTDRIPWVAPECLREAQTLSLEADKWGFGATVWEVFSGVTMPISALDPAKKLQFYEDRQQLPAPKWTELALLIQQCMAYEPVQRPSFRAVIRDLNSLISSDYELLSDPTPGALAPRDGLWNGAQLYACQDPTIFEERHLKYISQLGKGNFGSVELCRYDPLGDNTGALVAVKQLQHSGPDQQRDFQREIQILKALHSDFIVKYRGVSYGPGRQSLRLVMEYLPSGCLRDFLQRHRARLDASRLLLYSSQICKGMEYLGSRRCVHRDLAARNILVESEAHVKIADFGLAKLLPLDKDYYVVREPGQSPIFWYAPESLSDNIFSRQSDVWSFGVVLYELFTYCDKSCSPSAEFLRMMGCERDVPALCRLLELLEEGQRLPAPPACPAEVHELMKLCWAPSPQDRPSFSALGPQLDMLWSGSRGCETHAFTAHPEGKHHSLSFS
Assay: Inhibition of JAK3 at 10 uM by colorimetric analysis
Calls of active or inactive are those of the source. The calls are words filed in the database; no cut-off is given here.
METRIC: inhibition

[[record]]
compound_smiles = "Clc1cccc(-n2cc(-c3ccncc3)nn2)c1"
metric = "inhibition"
result = "inactive"

[[record]]
compound_smiles = "Clc1cccc(-n2nncc2-c2ccncc2)c1"
metric = "inhibition"
result = "inactive"

[[record]]
compound_smiles = "Clc1ccc(-n2cc(-c3ccncc3)nn2)cc1"
metric = "inhibition"
result = "inactive"

[[record]]
compound_smiles = "Clc1ccc(-n2nncc2-c2ccncc2)cc1"
metric = "inhibition"
result = "inactive"

